Values compiled from ChEMBL document CHEMBL1158134.

Tested on: Drechslera
Test Summary: Antimicrobial activity against Drechslera sorokiniana at 27 to 28 degC after 48 hrs in dark
Format: functional
Reported Metric: MIC

INSERT INTO assay_data (compound, observed_measurement) VALUES
  ('COC[C@@H]1NC(=O)[C@@H]2CCC=NN2C(=O)[C@H](C(C)(C)C)OC(=O)[C@@H](C2(C)CC2)NC(=O)[C@@H]2C[C@@]3(O)c4ccc(Cl)c(Cl)c4N[C@H]3N2C(=O)[C@@H]([C@@H](O)CC(=O)O)NC1=O [KUTZNERIDE 9]', '> 230 µM');

====

Test system: Staphylococcus aureus
Test Summary: Antimicrobial activity against Staphylococcus aureus at 37 degC after 24 hrs in dark
Type: functional
Reported Metric: log10 MIC (log10 of the value in µM)

INSERT INTO results (compound, reported_metric, observed_measurement) VALUES
  ('COC[C@@H]1NC(=O)[C@@H]2C[C@@H](Cl)CNN2C(=O)[C@H](C(C)(C)C)OC(=O)[C@@H](C2(C)CC2)NC(=O)[C@@H]2C[C@@]3(O)c4ccc(Cl)c(Cl)c4N[C@H]3N2C(=O)[C@@H]([C@H](O)CC(=O)O)NC1=O [KUTZNERIDE 8]', 'log10 MIC', 0.78),
  ('COC[C@@H]1NC(=O)[C@@H]2CCCNN2C(=O)[C@H](C(C)(C)C)OC(=O)[C@@H](C2(C)CC2)NC(=O)[C@@H]2C[C@@]3(O)c4ccc(Cl)c(Cl)c4N[C@H]3N2C(=O)[C@@H]([C@H](O)CC(=O)O)NC1=O [KUTZNERIDE 3]', 'log10 MIC', 0.95),
  ('CN[C@@H]1[C@H](O[C@H]2[C@H](O[C@H]3[C@H](O)[C@@H](O)[C@H](N=C(N)N)[C@@H](O)[C@@H]3N=C(N)N)O[C@@H](C)[C@]2(O)C=O)O[C@@H](CO)[C@H](O)[C@H]1O [STREPTOMYCIN]', 'log10 MIC', 1.23),
  ('COC[C@@H]1NC(=O)[C@@H]2CCCNN2C(=O)[C@H](C(C)C)OC(=O)[C@@H](C2(C)CC2)NC(=O)[C@@H]2C[C@@]3(O)c4ccc(Cl)c(Cl)c4N[C@H]3N2C(=O)[C@@H]([C@H](O)CC(=O)O)NC1=O [KUTZNERIDE 5]', 'log10 MIC', 2.08),
  ('COC[C@@H]1NC(=O)[C@@H]2CCC=NN2C(=O)[C@H](C(C)(C)C)OC(=O)[C@@H](C2(C)CC2)NC(=O)[C@@H]2C[C@@]3(O)c4ccc(Cl)c(Cl)c4N[C@H]3N2C(=O)[C@@H]([C@H](O)CC(=O)O)NC1=O [KUTZNERIDE 4]', 'log10 MIC', 2.15),
  ('COC[C@@H]1NC(=O)[C@@H]2CCCNN2C(=O)[C@H](C(C)(C)C)OC(=O)[C@@H](C2(C)CC2)NC(=O)[C@@H]2C[C@@]3(O)c4ccc(Cl)c(Cl)c4N[C@H]3N2C(=O)[C@@H]([C@@H](O)CC(=O)O)NC1=O [KUTZNERIDE 1]', 'log10 MIC', 1.08),
  ('COC[C@@H]1NC(=O)[C@@H]2C[C@@H](Cl)CNN2C(=O)[C@H](C(C)(C)C)OC(=O)[C@@H](C2(C)CC2)NC(=O)[C@@H]2C[C@@]3(O)c4ccc(Cl)c(Cl)c4N[C@H]3N2C(=O)[C@@H]([C@@H](O)CC(=O)O)NC1=O [KUTZNERIDE 2]', 'log10 MIC', 0.78),
  ('COC[C@@H]1NC(=O)[C@@H]2CCCNN2C(=O)[C@H](C(C)C)OC(=O)[C@@H](C2(C)CC2)NC(=O)[C@@H]2C[C@@]3(O)c4ccc(Cl)c(Cl)c4N[C@H]3N2C(=O)[C@@H]([C@@H](O)CC(=O)O)NC1=O [KUTZNERIDE 7]', 'log10 MIC', 2.08),
  ('COC[C@@H]1NC(=O)[C@@H]2CCC=NN2C(=O)[C@H](C(C)(C)C)OC(=O)[C@@H](C2(C)CC2)NC(=O)[C@@H]2C[C@@]3(O)c4ccc(Cl)c(Cl)c4N[C@H]3N2C(=O)[C@@H]([C@@H](O)CC(=O)O)NC1=O [KUTZNERIDE 9]', 'log10 MIC', 1.78);
